- assay-system: AChE (Type VI-S; from Electrophorus electricus) (Electrophorus electricus)
- Construct: AChE (Type VI-S; from Electrophorus electricus); purchased Sigma-Aldrich Type VI-S (catalogue number not given)
- Sequence (O42275 24-633): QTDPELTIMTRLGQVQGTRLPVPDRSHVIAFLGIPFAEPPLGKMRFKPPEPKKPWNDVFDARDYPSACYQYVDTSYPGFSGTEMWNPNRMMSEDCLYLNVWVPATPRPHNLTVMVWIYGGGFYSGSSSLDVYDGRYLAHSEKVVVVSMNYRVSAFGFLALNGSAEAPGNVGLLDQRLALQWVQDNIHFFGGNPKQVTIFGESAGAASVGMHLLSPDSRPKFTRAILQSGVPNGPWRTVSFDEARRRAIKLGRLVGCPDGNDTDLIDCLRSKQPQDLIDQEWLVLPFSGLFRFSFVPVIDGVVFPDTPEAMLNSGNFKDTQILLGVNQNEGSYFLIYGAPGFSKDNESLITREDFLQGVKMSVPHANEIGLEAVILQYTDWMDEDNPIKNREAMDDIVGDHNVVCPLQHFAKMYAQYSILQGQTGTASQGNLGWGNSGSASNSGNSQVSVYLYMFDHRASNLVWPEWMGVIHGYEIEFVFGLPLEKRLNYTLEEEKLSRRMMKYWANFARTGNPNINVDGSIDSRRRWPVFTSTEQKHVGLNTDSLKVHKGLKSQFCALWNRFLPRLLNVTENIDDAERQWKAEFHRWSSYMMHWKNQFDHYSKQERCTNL
- test-details: biochemical
- reported-conditions: read-out: Residual activity at 10 µM (%) AChE, inhibitor 10 µM; 15 min preincubation
- Experimental: AChE assays were performed as described by Ellman et al.[41] with slight modifications. […] DTNB was used for color development, caused by reaction between it and thiocholine (a product of AChE). […] Inhibitions of the activities of AChE, BChE, MAO-A, and MAO-B by the 15 compounds were investigated at an inhibitor concentration of 10 µM. IC50 values were also determined. […] The inhibition types and Ki values were determined using Lineweaver–Burk Plots and secondary plots.
Measured remaining activity at 10 µM, listed per entry.
Could you give me the number in %? Just the number is fine.

Worked examples follow.
// lookup remaining activity at 10 µM for CC(C)=CC(=O)O[C@@H]1[C@H](OC(=O)CC(C)C)c2c(ccc3ccc(=O)oc23)OC1(C)C
97

// lookup remaining activity at 10 µM for CC(C)CC(=O)O[C@@H]1c2c(ccc3ccc(=O)oc23)OC(C)(C)[C@@H]1OC(=O)CC(C)C
51.5

Now turn to the next compound.
// lookup remaining activity at 10 µM for CC(C)=CC(=O)O[C@@H]1c2c(ccc3ccc(=O)oc23)OC(C)(C)[C@@H]1OC(=O)CC(C)C
86.9
